- subject of test: Cannabinoid receptor 2 (Homo sapiens)
- Sequence (P34972 whole entry): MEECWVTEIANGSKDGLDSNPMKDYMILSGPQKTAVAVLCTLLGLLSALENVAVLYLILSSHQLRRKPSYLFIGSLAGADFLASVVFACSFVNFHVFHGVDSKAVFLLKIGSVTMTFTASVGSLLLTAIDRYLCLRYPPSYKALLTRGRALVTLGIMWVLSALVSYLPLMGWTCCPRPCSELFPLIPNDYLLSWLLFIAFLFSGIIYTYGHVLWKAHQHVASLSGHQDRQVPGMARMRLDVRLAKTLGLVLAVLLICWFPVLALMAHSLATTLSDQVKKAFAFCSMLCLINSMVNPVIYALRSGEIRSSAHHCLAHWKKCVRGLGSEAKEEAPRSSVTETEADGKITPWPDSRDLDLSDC
experimental endpoint: Ki
Give your result as the value with the unit written after it.

Problem: Recorded Ki of CCCCCCC(C)(C)c1cc(O)c2c(c1)OC(C)(C)c1ccc(C)c(CO)c1-2 , please.
Result: 96 nM

====

- procedure summary: Tmax in BALB/c mouse brain at 10 mg/kg, po measured for 4 hrs by MS-HPLC analysis
- Assay type: ADME, organism-based
experimental endpoint: Tmax (min)
I only need the number, in min, no unit after it.

Problem: Suppose we examine the compound C=C(C)[C@@H]1CCC(C)=C[C@H]1c1c(O)cc([C@H](C)n2nccn2)cc1O ; what Tmax value has been reported?
Result: 18
